These data points were gathered from patent US20210388087A1.

# fold change of affinity values compiled below
Biological target: T1, Human CD3eg linker (human)
T1 construct: Single chain: epsilon and gamma subunits of human CD3 joined by a 29-mer linker, Flag-tag at the C-terminus; also called recombinant human CD3
T1 chain: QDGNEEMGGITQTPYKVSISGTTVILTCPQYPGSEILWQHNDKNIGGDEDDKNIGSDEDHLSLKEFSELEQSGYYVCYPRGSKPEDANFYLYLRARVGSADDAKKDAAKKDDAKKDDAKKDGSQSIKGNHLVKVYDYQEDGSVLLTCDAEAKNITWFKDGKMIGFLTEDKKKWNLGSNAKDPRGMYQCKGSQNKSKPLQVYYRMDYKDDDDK
Assay: Biacore SPR, vs template H183/L072
The figure you give is taken to be in fold; do not add the unit.

Any idea what its fold change of affinity is? The binder is H183/L072 VH M34D (antibody, name in Kabat numbering, V domains shown) VH: QVQLVESGGGLVQPGRSLRLSCAASGFTFSNAWDHWVRQAPGKGLEWVAQIKDKGNAYAAYYAPSVKGRFTISRDDSKNSIYLQMNSLKTEDTAVYYCHYVHYASASTVLPAFGVDAWGQGTTVTVSS VL: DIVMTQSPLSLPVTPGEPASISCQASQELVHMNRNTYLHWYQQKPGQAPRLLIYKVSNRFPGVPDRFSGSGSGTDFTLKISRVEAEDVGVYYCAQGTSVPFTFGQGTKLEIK
0

Any idea what its fold change of affinity is? The binder is H183/L072 VH D101M (antibody, name in Kabat numbering, V domains shown) VH: QVQLVESGGGLVQPGRSLRLSCAASGFTFSNAWMHWVRQAPGKGLEWVAQIKDKGNAYAAYYAPSVKGRFTISRDDSKNSIYLQMNSLKTEDTAVYYCHYVHYASASTVLPAFGVMAWGQGTTVTVSS VL: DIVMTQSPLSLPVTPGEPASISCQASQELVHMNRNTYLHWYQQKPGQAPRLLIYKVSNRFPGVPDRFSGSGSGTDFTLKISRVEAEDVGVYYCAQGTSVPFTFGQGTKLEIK
0.7

Any idea what its fold change of affinity is? The binder is H183/L072 VH Y58D (antibody, name in Kabat numbering, V domains shown) VH: QVQLVESGGGLVQPGRSLRLSCAASGFTFSNAWMHWVRQAPGKGLEWVAQIKDKGNAYAADYAPSVKGRFTISRDDSKNSIYLQMNSLKTEDTAVYYCHYVHYASASTVLPAFGVDAWGQGTTVTVSS VL: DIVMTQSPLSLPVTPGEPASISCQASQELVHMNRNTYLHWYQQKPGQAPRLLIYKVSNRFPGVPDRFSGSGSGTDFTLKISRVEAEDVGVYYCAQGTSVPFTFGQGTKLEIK
0
